PROCEDURE_SUMMARY: Cmax in Sprague-Dawley rat at 2 mg/kg, iv administered as single dose
Format: ADME, organism-based
Design: route intravenous, dose 2 mg/kg
RUN_CONDITIONS: in vivo
The entries below are paired with their reported Cmax.
Entry rule: numbers only, all in ng/mL.

Req: Value lookup for Cmax; key = C=CC(=O)Nc1cc(Nc2nccc(-c3cn(C4CC4)c4ccccc34)n2)c(OC)cc1[S+]([O-])CCN(C)C (configuration not stated)
Resp: 503

Okay, now this compound:
Req: # get_value(readout='Cmax', item= C=CC(=O)Nc1cc(Nc2nccc(-c3cn(C)c4ccccc34)n2)c(OC)cc1[S+]([O-])CCN(C)C (configuration not stated) )
Resp: 789
